Test: Chemical stability in sodium acetate buffer assessed as half life at pH 4.5 at 37 degC
Assay type: physicochemical
Endpoint Name: half-life

Query half-life for CC(C)(C(=O)NC1CCOP(=O)(N(CCCl)CCCl)N1)c1ccccc1N (stereo unspecified)
4.9 min

====

Experiment: Chemical stability in sodium phosphate buffer assessed as half life at pH 7.4 at 37 degC
Assay type: physicochemical
Endpoint Name: half-life

Query half-life for CC(C)(C(=O)NC1CCOP(=O)(N(CCCl)CCCl)N1)c1ccccc1N (stereo unspecified)
53.7 min

====

Experiment: Chemical stability in sodium acetate buffer assessed as half life at pH 4.0 at 37 degC
Assay type: physicochemical
Endpoint Name: half-life (min)
Enter your answer as a number in min; do not include the unit.

Query half-life for CC(C)(C(=O)NC1CCOP(=O)(N(CCCl)CCCl)N1)c1ccccc1N (stereo unspecified)
3.2
